The origin of these recorded values is patent US20200297760A1.

Molecular target: T1, HLA-B*08:01 (recombinant MHC class I molecule) (human)
T1 construct: Recombinant MHC molecule of the ProImmune REVEAL assay
Assay: REVEAL MHC-peptide binding assay, stabilisation of ternary complex with recombinant MHC
No end group written: not given here.
measured-parameter: In Vitro Score

WVQRGNKKA (not fully specified, Synthetic 9-mer from the CD28/4-1BB junction region) [WVQRGNKKA synthetic peptide K28Q/L34A (SEQ ID NO: 92)]
0.7 % of positive control peptide
WVKRGRKKA (Synthetic 9-mer from the CD28 transmembrane / 4-1BB costimulatory junction region of a CAR) [WVKRGRKKA synthetic peptide L34A (SEQ ID NO: 90)]
3.1 % of positive control peptide
AFIIFWVRR (Synthetic 9-mer from the CD28/4-1BB junction region) [AFIIFWVRR synthetic peptide K28R (SEQ ID NO: 101)]
0.3 % of positive control peptide

Now for another entry.
Data request: Can you look up the measured In Vitro Score of WVQRGNKKS (not fully specified, Synthetic 9-mer from the CD28/4-1BB junction region) [WVQRGNKKS synthetic peptide K28Q/L34S (SEQ ID NO: 91)] for me?
Data returned: 0 % of positive control peptide
